Reported OD450 at 10 nM is given for each of the following binders.
# tested-target: T1, human MSLN-R1-his protein (human, UniProt Q13421 296-390)
# T1 construct: Region 1 of human MSLN, His-tagged; also called human MSLN-R1 protein; hMSLN-R1-his; not shown: His tag
# T1 chain: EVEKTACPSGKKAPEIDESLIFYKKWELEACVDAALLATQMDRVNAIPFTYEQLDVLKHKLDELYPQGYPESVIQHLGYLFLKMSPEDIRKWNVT
# method-summary: ELISA, coated MSLN-R1;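 further: serially diluted chimeric antibodies bound to the coated, BSA-blocked plate for 2 h at 37 °C, with TMB colour read after acid stop and a negative control antibody alongside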
readout: OD450 at 10 nM

- binder: "S009-F2.23.12 (antibody, human IgG1, kappa, V domains shown, Human-murine chimeric antibody, human IgG1/kappa constant regions) VH: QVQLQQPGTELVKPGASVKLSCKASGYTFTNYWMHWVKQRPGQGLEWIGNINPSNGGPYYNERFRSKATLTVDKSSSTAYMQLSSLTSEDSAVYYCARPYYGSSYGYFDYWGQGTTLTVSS VL: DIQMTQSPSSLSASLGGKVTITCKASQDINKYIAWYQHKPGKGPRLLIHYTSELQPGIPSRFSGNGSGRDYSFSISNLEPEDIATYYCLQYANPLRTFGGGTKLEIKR"
  result: "0.05 OD450"
- binder: "S009-F2.21.4 (antibody, human IgG1, kappa, V domains shown, Human-murine chimeric antibody, human IgG1/kappa constant regions) VH: EVQLQQSGPELVKPGASVKIPCKASGYTFTDYNMDWVKQSHGKSLEWIGDINPNNGGSIYNQRFKGKATLTVDKSSSTAYMELRSLTSEDSAVYYCARRAYYSTGYFDVWGTGTTVTVSS VL: QIVLTQSPALMSASPGEKVTITCSASSSISYMHWFQQKPGTSPKLWIYSTSTLASGVPARFSGSGSGTSYSLTISRMEAEDTATYYCQQRSSYPPTFGGGTKLEIKR"
  result: "0.05 OD450"
- binder: "S009-F2.58.8 (antibody, human IgG1, kappa, V domains shown, Human-murine chimeric antibody, human IgG1/kappa constant regions) VH: QVQLLQSGAELAKPGASVKLSCKASGYTFTSYWVHWVKQRPGQGLEWIGYINPNSGYTKYNQKFKDKATLTADKSSSTAYMQLSSLTYEDSAVYYCADHYYGSSRDYFDYWGQGTTLTVSS VL: QIVLTQSPAIMSASPGEKVTMTCSASSSVSYMYWYQQRPGSSPRLLIYDTSNLASGVPVRFSGSGSGTSYSLTISRMEAEDAATYYCQQWNSYPYTFGGGTKLEIKR"
  result: "0.43 OD450"
